Every entry's value here was drawn from the nanobody polyreactivity screen of Harvey et al. (2022).

# procedure.details: yeast display, Sf9 membrane polyspecificity reagent, FACS + sequencing; frameworks hold sequencing errors
outcome.measure: polyreactivity (PSR sort gate)

The measured polyreactivity (PSR sort gate) associated with QVQLVESGGGVVQAGGSLRLSCAASGRIFVSYAMGWYRQAPGKERELVASISGRGGSTYYADSVKGRFTISRDNAKNTVELQMNSLKPEDTAVYYCNKVARTRRITTYDYWGQGTQVTVSS reads high polyreactivity

The measured polyreactivity (PSR sort gate) associated with QVQLVESGGGLVQAGGSLRLSCAASGNIFNLYAMGWYRQAPGKERELVAAIRGSGSTYYADSVKGRFTISRDNAKNTVYLQMNSLKPEDTAVYYCAAGISGHYYWGQGTQVTVSS reads high polyreactivity

The measured polyreactivity (PSR sort gate) associated with QVQLVESGLGLVQAGGSLRISCAASGRIFYYNAMGWYRQAPGKERELVARIRRSGGRTYYADSVKGRFTISRDNAKNTVYLLMNSLKPADTAVYYCAARRQGRSGNGSWGQGTQVTVSW reads high polyreactivity

The measured polyreactivity (PSR sort gate) associated with QVQLVESGQGLVQAGGSLRLSCAASGFTFWGYTMGWYRQAPGKERELVAGITLSGGSTYYADSVKGRFTISRDNAKNTVYLEMNSLKPEDTAVYYCAAKPYQVSSYDFSLRDYWGQGTQVTVSS reads low polyreactivity

Here's the next entry for you.
The measured polyreactivity (PSR sort gate) associated with QVQLVDSGGGLVQAGGSLRLSCAACGSTFVLYGMGWYRQAPGKQRELVADITGGGSSTYYADSVKGRFTISRDYAKNTVYLQMNSLKPEDTAVYYCNADYYPFYWIEPATPYLGFDYWGQGTQVTVSS reads low polyreactivity

---

# procedure.details: yeast display, Sf9 membrane polyspecificity reagent, FACS + sequencing; frameworks hold sequencing errors
outcome.measure: polyreactivity (PSR sort gate)

The measured polyreactivity (PSR sort gate) associated with QVQLVESGGGLVQAGGSLRLSCAASGLTFADYAMGWYRQAPGKERELVAAISRRGGSTYYADSVKGRFTISRDNAKNTVYLQMNSLKPEDTAVYYCAAYAYDVAFKRYKFDYWGQGTQVTVSS reads high polyreactivity

The measured polyreactivity (PSR sort gate) associated with QVQLVESGGGLDQAGGSLRSSCAASGRIFPSYAMGWYRQAPGKERELVAAISRSGGSTYYADSVKGRFTISRDNAKNTVDLQMICLKPEDTGVYYCAKQVYSGYSTRARSRYYEYYYWGQGNQVTVSS reads high polyreactivity

The measured polyreactivity (PSR sort gate) associated with QVQLVESGGGLVQAGGSLRLSCAASGSIFRSYAMGWYRQAPGKERELVARITYRGGGTYYADSVKGRVTISRDNAKNTVYLQMKSLKPEVTAVYYCAASGAFVRTRVTTADYDYWGQGTQVTVSS reads high polyreactivity

---

# procedure.details: yeast display, Sf9 membrane polyspecificity reagent, FACS + sequencing; frameworks hold sequencing errors
outcome.measure: polyreactivity (PSR sort gate)

Some solved entries appear below for comparison.
The measured polyreactivity (PSR sort gate) associated with QVQLVESGGGLVQAGGSLRLSCAASGRTFTYYSMGWYRQAPGKESELVARISIRGTNTYYADSLKGRFTISRDNAKNTVYLQMTSLKPEDTAVYYCAKYYYTSIVGYDSWGQGTQVTVSS reads low polyreactivity

The measured polyreactivity (PSR sort gate) associated with QVQLVESGGGLVQAGGSLRLICAASGRILYKNSMGWYRQAPAKEMQLVAAISSTAGYTYYADSLKGRFTISRDNAKNTVYLQMNSLKPEDTAVYYCAARRSGVKRRYDYWGQGTQVTVSS reads low polyreactivity

The measured polyreactivity (PSR sort gate) associated with QVQLVESGGGLVQAGGSLRLSCAASGRTFRYYAMGWYRPAPGKERELVAAINWSGGTTYYADSVKGRFTISRDNAKNTVYLQMNSLKPEDTAVYYCAAVYGYPSTSRYDYWGQGTQVTVSS reads high polyreactivity

The measured polyreactivity (PSR sort gate) associated with QVQLVESGGGLVQAGGSLRLSCAASGIIFGENAMGWYRQAPGKERELVAAINSVGSTYYADSVKGRFTISRDNAKNTVYLQMNSLKPEDTAVYYCAAESWFLRWYRYDYWGQGTQVTVSS reads low polyreactivity

Continuing:
The measured polyreactivity (PSR sort gate) associated with QVQLVESGGGLVQAGGSLRLSCAASGSIFVQNAMGWYRQAPGKERELVAAINSGGSTYYADSVKGRFTISRDNANNTVYLQMNSLKPEDTAVYYCAADHNYYAYSYYYWGQGTQVTVSS reads low polyreactivity

The measured polyreactivity (PSR sort gate) associated with QVQLVESGGGLVQAGGSLRLSCAASGSIFVENAMGWNRQAPGKEREFVAAITRSGGSTYYADSVKGRFTISRDNAKNTVYLQMKILKPEDTAVYYCSARIWDEQPAGGYYWGQGTQVTVSS reads low polyreactivity

The measured polyreactivity (PSR sort gate) associated with QVQLVESGGGLVQAGGSLRLSCAASGSIFPYYAMGWYRQSPGKERELVASSNQSDGTTYYADSVKGRFTISRDNAKNTVYLQMNSLKPEDTAVYYCAADTTLQAFIRYRPIGSYDSWGQGTQVTVSS reads low polyreactivity

The measured polyreactivity (PSR sort gate) associated with QVQLVESGGGLVQAGGSLRLSCAASVSIFYEYTMGWYRQAPGKERELVADITEGDGITYYADSVKGRFTISRDNAKNTVYLQMNSLKPEDTAVYYCNADVVQAVTTHYDYWGQGTQVTVSS reads low polyreactivity

---

# procedure.details: yeast display, Sf9 membrane polyspecificity reagent, FACS + sequencing; frameworks hold sequencing errors
outcome.measure: polyreactivity (PSR sort gate)

Some solved entries appear below for comparison.
The measured polyreactivity (PSR sort gate) associated with QVQLVESGGGLVQAGGSLRLSCAASGSIFFLYAMGWYRQAPGKERELVAAISGGGGSTYYADSVKGRFTISRDNAKNTVYLQMNSLKPEDTAVYYCDALSKTRGGYWGQGTQVTVSS reads high polyreactivity

The measured polyreactivity (PSR sort gate) associated with QVQLVESGGGLVQAGGSLRLSCAASGRILVRYAMGWYRQAPGKERELVAAISSSGSSTYYADSVKGRFTISRYNAKNTVYLQMNSLKPEDTAVYYCAADWEYVFYEYGYWGQGTQVTVSS reads low polyreactivity

The measured polyreactivity (PSR sort gate) associated with QVQLVESGGGLVQAGGSLRLSCAASGSIFVYYAMGWYRQAPGKERELVATISSDVSTYYSDSVKGRFTISRDNAKNTVYVQMNRLKPEDTAVDYCAATVSFDWAYSFSLDLEDDYWGQGTQVTVSS reads low polyreactivity

The measured polyreactivity (PSR sort gate) associated with QVQLVESGGGLVHAGGSLRLSCAASGSTFSRNTMGWYRQAPGKERELVAAITKSAVSTYNADSVKGRFTISRDNAKNTVYLQMNSLKPEDTAVYYCAKVYRTSTSKAYDYWGQGTQVTVSS reads high polyreactivity

The measured polyreactivity (PSR sort gate) associated with HVQLVESGGGLVQAGGSLRISCAASGRIFGRNAMGWYRQAPGTERELVATISGGGSTYYADSVKGRFTISRDNAKNTVYFQMNSLKPEDTAVFYCAVGHRWWGAYAGYDYWGQGTQVTVSS reads low polyreactivity

The measured polyreactivity (PSR sort gate) associated with QVQLVESGGGLVQAGCSLRLSCAASGSTFFRYAMGWYRQAPGKERELVAAITSGGNTYYADSVKGRFTISRDNAKITVYLQMNSMKPEDTAVYYCAADVYHWIHEYDYWGQGTQVSVSS reads low polyreactivity

The measured polyreactivity (PSR sort gate) associated with QVQLVESGGGLVQAGGSLRLSCAASGRTFKHYAMGGYRQAPGKERELVAAITSGGSTYYADSVKGRFTISRDNAKNTVYLQMNSLKPEDTAVYYCNKESYFDTYRRYDSWGQGTQVTVSS reads low polyreactivity

The measured polyreactivity (PSR sort gate) associated with QVQLVESGGGLVQAGGSLRLSCAASGRTFGRNAMGWYRQAPGKERELVAAISSSGASTYYADSVKGRFTISRDNAKNTVYLQMNSLKPEDTAVYYCAKDVWGSRYAYDYWGQGTQVTVSS reads low polyreactivity

Continuing:
The measured polyreactivity (PSR sort gate) associated with QVQLVESGGGLGQAGGSLRLSCAASGRIFRYNAMGWYRQAPGKERELVAAITSGTGTNYADSVKGRFTISRDNAKNTVYLQMNSLKPEDTAVYYCNKVRKSYRYDYWGQGTQVTVSS reads low polyreactivity

The measured polyreactivity (PSR sort gate) associated with QVQLVESGGGLVQAGGSLRLSCAASGSTFAFYDMGWYRQAPGKERELVAAISPSDGDTYYADSVKGRFTISRDNAKNTVYLQMNSLKPEDTAVYYSAAETSHNPEYERGSDYWGQGTQVTVSS reads low polyreactivity

---

# procedure.details: yeast display, Sf9 membrane polyspecificity reagent, FACS + sequencing; frameworks hold sequencing errors
outcome.measure: polyreactivity (PSR sort gate)

Some solved entries appear below for comparison.
The measured polyreactivity (PSR sort gate) associated with QVQLVESGGGLVQAGGSLRLSCAASGFTIYRYAMGWYRQAPGKERELVATIRRGGSTKYADSVKGRYTISRDNAKNTVYILMISLKPEDTAVYYCNARYYAAPDKYYYWGQGTQVTVSS reads low polyreactivity

The measured polyreactivity (PSR sort gate) associated with QVQLVESGGGLVQAGGSLRLSCAASGFTFGDNAMGWYRQAPGKERELVAAITSTGGSTNYADSVKGRFTISRDNAKNTVYLQINSLKPEDTAVYYCAAEWLYPHDGGYPRPMDYWGQGTQVTVSS reads low polyreactivity

The measured polyreactivity (PSR sort gate) associated with QVQLVESGGGLVQAGVSLRLSCAASGSIFRHNAMGWYRQAPGKERELVAAINWSGGRTYYADSVKGRFTISRDNAKNTVYLHMNSLKPEDTAVYYCADPVPRSWYDYWGQGTQVTVSS reads high polyreactivity

The measured polyreactivity (PSR sort gate) associated with QVQLVESGGGLVQAGGSLRLSCAASGFTFGLNVMGWYRQAPGKERELVAAISQSGGSTYYADSVKGRFTISRDNAKNTVYLQMNSLKPEDTAVYYCAVDYYPNPSYTVYDDEYWGQGTQVTVSS reads low polyreactivity

The measured polyreactivity (PSR sort gate) associated with QVQLVESGGGLVQAGGSLRLSCAASGRTLVPYAMGWYRQAPGKERELVAAISNVSSTNYADSVKGRFTISRDNAKNTGYLQMNSLKPEDTAVYYCNAVGVPSEYYSWGQGTQVTVSS reads low polyreactivity

Continuing:
The measured polyreactivity (PSR sort gate) associated with QVQLVESGGGLVQAGGSLRLSCAASGSTFDWYAMGWYRQAPGKEREFVAAIDQDEDSTYYADSVKGRFTISRDNAKNTVYLQMNSLKPEVTAVYYCAADHAWYSLFDYWGQGTQVTVSS reads low polyreactivity

The measured polyreactivity (PSR sort gate) associated with QVQHVESGGGLVQAGGSLRLSCAASGFTIVYYGMGRYRQAPGKERELVAAITYSGGRTYYADSVKGRFTISRDNAKNTVYLQMNSLKPEDTAVYYCNAYTQQYRSYGYWGQGTQVTVSS reads high polyreactivity

The measured polyreactivity (PSR sort gate) associated with QVQLVESGGGLVQAGGSLRISCAASGRTFDYNAMGWYRQAPGKERELVAAIRFGGGSTYYADSVKGRFTISRDNAKNTVYFQMNSLKPEDTAVYYCNASPLWIGWEIVPVGSSHYDYWGQGTQVTVSS reads low polyreactivity
